Target: T1, EsCas13d, nuclease-dead (Eubacterium siraeum, UniProt B0MS50, R295A;H300A;R849A;H854A)
T1 sequence: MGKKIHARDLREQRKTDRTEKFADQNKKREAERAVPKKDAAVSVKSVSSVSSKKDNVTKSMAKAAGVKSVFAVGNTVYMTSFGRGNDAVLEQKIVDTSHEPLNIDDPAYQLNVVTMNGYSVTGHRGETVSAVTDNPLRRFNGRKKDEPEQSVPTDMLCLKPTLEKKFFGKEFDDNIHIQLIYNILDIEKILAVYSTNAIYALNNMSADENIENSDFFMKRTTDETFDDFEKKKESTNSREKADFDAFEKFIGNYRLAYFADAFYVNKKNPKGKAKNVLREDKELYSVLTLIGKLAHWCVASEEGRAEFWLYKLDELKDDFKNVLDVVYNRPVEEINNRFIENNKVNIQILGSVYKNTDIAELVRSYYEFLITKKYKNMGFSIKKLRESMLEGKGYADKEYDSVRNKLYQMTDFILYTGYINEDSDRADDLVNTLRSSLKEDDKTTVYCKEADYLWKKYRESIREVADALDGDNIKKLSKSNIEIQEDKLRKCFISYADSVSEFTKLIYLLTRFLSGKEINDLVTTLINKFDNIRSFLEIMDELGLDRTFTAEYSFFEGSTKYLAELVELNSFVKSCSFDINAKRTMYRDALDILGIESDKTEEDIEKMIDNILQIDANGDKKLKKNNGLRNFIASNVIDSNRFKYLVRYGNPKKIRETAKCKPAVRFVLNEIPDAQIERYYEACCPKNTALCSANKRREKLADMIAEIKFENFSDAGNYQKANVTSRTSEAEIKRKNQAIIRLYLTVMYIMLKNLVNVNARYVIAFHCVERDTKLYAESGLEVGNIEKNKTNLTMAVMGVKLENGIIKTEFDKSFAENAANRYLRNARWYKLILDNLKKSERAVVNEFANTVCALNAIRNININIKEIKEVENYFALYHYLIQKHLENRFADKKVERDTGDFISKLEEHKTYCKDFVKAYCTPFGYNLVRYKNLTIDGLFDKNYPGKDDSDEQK
Assay: crRNA (strand 1, pre-loaded); Mg2+; 40 mM Tris-HCl pH 7.5, 150 mM NaCl, 6 mM MgCl2, 1 mM DTT, 0.1% Tween-20, 0.2 mg/ml BSA; 25 C; 10 min per concentration, then washed
Details: tags: His6-TwinStrep-SUMO cleaved; N-terminal SNAP kept (SNAP-Surface 488); label: 3' end held by stalled T7 RNA polymerase
# key: entry, value: Kd
The reply should contain only the number, in nM.

Binder	Unit Annotation	Reported Measurement
target 1 insU 3' of 21,insC 3' of 20 (mixed) RNA 1: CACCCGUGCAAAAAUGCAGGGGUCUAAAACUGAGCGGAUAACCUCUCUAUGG RNA 2: GGGAAUGGAUCCACAUCUACGAAUUCGUACCUACUAGAGAGGUUAUCCGCUCACCGAGAUCGGAAGAGCACACGU	nM	13.5
target 1 insU 3' of 22,insG 3' of 19 (mixed) RNA 1: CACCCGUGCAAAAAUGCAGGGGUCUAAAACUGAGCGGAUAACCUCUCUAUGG RNA 2: GGGAAUGGAUCCACAUCUACGAAUUCGUACUCAUGAGAGAGGUUAUCCGCUCACCGAGAUCGGAAGAGCACACGU	nM	86

We now examine a further binder.
Data request: GET /values?readout=Kd&item= target 1 insA 3' of 21,insU 3' of 4 (mixed) RNA 1: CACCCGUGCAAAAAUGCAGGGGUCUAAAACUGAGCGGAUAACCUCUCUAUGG RNA 2: GGGAAUGGAUCCACAUCUACGAAUUCGUACCAAUAGAGAGGUUAUCCGCUUCACCGAGAUCGGAAGAGCACACGU
Data returned: 12.5
